Each recorded value in this set is attributed to patent US5407932A.

Tested on: E. coli NIH JC-2 (IFO 12734)
Assay: Minimum inhibitory concentration, standard method of the Japan Society of Chemotherapy
Type: cell-based
Details: Escherichia coli, IFO12734
attribute_measured: MIC (µg/mL)
Please respond with the number in µg/mL and leave the unit unwritten.

| molecule | endpoint_unit | MIC |
| --- | --- | --- |
| O=C(O)c1cn(C2COC2)c2nc(N3CCCC3)c(F)cc2c1=O | µg/mL | 0.39 |
| Nc1c(F)c(N2CCNCC2)c(F)c2c1c(=O)c(C(=O)O)cn2C1COC1 | µg/mL | 0.39 |

Next item in the queue.
Entry under review: COc1c(N2CCC(N)C2)c(F)cc2c(=O)c(C(=O)O)cn(C3COC3)c12 (stereo not drawn) . Reported MIC? 0.39
